- TGT: glucocorticoid receptor (GR) (Homo sapiens, UniProt P04150)
- PROTOCOL_SUMMARY: Assay for agonist activity on glucocorticoid receptor (luciferase reporter, HEK293 cells transfected with pBIND-GR plasmid)
- Assay type: cell-based
- SETTINGS: EC50 of agonist activity, HEK293 reporter cells; read-out: Nuclear receptor enzyme activity (nM) GR
- Description: Pharmacological Example 1: Assay for Agonist Activity on Glucocorticoid Receptor (GR) […] HEK293 cells were digested and seeded into 6-cm culture dishes. […] The cells were resuspended in phenol red-free DMEM medium containing 5% charcoal-stripped serum, counted, and then seeded into 96-well plates. […] The luminescence signal values were measured using a multimode microplate reader following the instructions of the luciferase assay kit. […]
Documented EC50 across a set of compounds
Provide only the numeric value, understood in nM.

Incoming: Quick check: EC50 of C[C@]12C=CC(=O)C=C1CC[C@H]1[C@@H]3C[C@H]4OC(c5ccc(CSC6CCOC6=O)cc5)O[C@@]4(C(=O)CCl)[C@@]3(C)C[C@H](O)[C@@]12Cl (stereo partly drawn) [Compound 38] ?
Outgoing: 0.11

Incoming: Quick check: EC50 of C[C@]12C=CC(=O)C=C1[C@@H](F)C[C@H]1[C@@H]3C[C@H]4OC(c5ccc(CNC6CCOC6=O)cc5)O[C@@]4(C(=O)CO)[C@@]3(C)C[C@H](O)[C@@]12F (stereo partly drawn) [Compound 9] ?
Outgoing: 3.27

Incoming: Quick check: EC50 of C[C@]12C=CC(=O)C=C1CC[C@H]1[C@@H]3C[C@H]4OC(c5ccc(SC6CCOC6=O)cc5)O[C@@]4(C(=O)CO)[C@@]3(C)C[C@H](O)[C@@]12F (stereo partly drawn) [Compound 41] ?
Outgoing: 6.19

----------
- TGT: progesterone receptor (PR) (Homo sapiens)
- Sequence (P06401 678-933): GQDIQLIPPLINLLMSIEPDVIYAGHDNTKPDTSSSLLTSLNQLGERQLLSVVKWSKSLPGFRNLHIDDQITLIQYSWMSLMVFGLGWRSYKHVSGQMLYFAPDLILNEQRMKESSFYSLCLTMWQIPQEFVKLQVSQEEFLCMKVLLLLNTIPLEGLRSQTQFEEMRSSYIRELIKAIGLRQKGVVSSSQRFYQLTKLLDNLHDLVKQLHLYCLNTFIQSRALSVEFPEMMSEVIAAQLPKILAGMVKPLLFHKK
- PROTOCOL_SUMMARY: Assay for agonist activity on progesterone receptor (luciferase reporter, HEK293 cells transfected with pBIND-PR plasmid)
- Type: cell-based
- SETTINGS: ratio of EC50 values
MEASURED_QUANTITY: Target selectivity PR/GR

Incoming: Quick check: Target selectivity PR/GR of C[C@]12C=CC(=O)C=C1[C@@H](F)C[C@H]1[C@@H]3C[C@H]4OC(c5ccc(CNC6CCOC6=O)cc5)O[C@@]4(C(=O)CO)[C@@]3(C)C[C@H](O)[C@@]12F (stereo partly drawn) [Compound 9] ?
Outgoing: > 1.5×10^4

Incoming: Quick check: Target selectivity PR/GR of C[C@]12C=CC(=O)C=C1CC[C@H]1[C@@H]3C[C@H]4OC(c5ccc(CNC6CCOC6=O)cc5)O[C@@]4(C(=O)CO)[C@@]3(C)C[C@H](O)[C@@]12Cl (stereo partly drawn) [Compound 24] ?
Outgoing: > 4.5×10^4

Incoming: Quick check: Target selectivity PR/GR of C[C@]12C=CC(=O)C=C1[C@@H](F)C[C@H]1[C@@H]3C[C@H]4OC(C5CCN(C(=O)C6COC(=O)C6)CC5)O[C@@]4(C(=O)SCF)[C@@]3(C)C[C@H](O)[C@@]12F (stereo partly drawn) [Compound 4] ?
Outgoing: > 4223

----------
- TGT: glucocorticoid receptor (GR) (Homo sapiens)
- Sequence (P04150 521-777): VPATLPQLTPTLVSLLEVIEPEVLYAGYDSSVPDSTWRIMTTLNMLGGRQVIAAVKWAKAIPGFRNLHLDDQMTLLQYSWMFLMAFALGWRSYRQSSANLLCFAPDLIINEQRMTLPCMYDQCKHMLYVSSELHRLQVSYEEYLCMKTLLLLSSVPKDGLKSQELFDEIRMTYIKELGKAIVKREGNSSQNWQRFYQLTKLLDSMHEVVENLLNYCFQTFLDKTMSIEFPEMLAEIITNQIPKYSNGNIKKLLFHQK
- PROTOCOL_SUMMARY: Assay for agonist activity on glucocorticoid receptor (luciferase reporter, HEK293 cells transfected with pBIND-GR plasmid)
- Format: cell-based
- SETTINGS: GR agonist EC50 (nM), HEK293 cells transfected with pBIND-GR, luciferase signal
MEASURED_QUANTITY: EC50 (nM)
Provide only the numeric value, understood in nM.

Examples from the recorded data:
C[C@]12C=CC(=O)C=C1[C@@H](F)C[C@H]1[C@@H]3C[C@H]4OC(c5ccc(CSC6CCOC6=O)cc5)O[C@@]4(C(=O)OCF)[C@@]3(C)C[C@H](O)[C@@]12F (stereo partly shown) | 0.12
C[C@]12C=CC(=O)C=C1[C@@H](F)C[C@H]1[C@@H]3C[C@H]4OC(c5ccc(CSC6CCOC6=O)cc5)O[C@@]4(C(=O)SCF)[C@@]3(C)C[C@H](O)[C@@]12F (stereo partly shown) | 0.1
C[C@]12C=CC(=O)C=C1CC[C@H]1[C@@H]3C[C@H]4OC(c5ccc(CSC6CCOC6=O)nc5)O[C@@]4(C(=O)CO)[C@@]3(C)C[C@H](O)[C@@]12Cl (stereo partly shown) | 0.37
C[C@]12C=CC(=O)C=C1CC[C@H]1[C@@H]3C[C@H]4OC(c5ccc(COC6CCOC6=O)cc5)O[C@@]4(C(=O)CO)[C@@]3(C)C[C@H](O)[C@@]12Cl (stereo partly shown) | 0.55
C[C@]12C=CC(=O)C=C1CC[C@H]1[C@@H]3C[C@H]4OC(c5ccc(CNC6COC(=O)C6)cc5)O[C@@]4(C(=O)CO)[C@@]3(C)C[C@H](O)[C@@]12F (stereo partly shown) | 0.63
C[C@]12C=CC(=O)C=C1CC[C@H]1[C@@H]3C[C@H]4OC(c5ccc(COC6CCOC6=O)cc5)O[C@@]4(C(=O)CO)[C@@]3(C)C[C@H](O)[C@@]12F (stereo partly shown) | 0.43

Now look at this entry.
Incoming: Quick check: EC50 of C[C@]12C=CC(=O)C=C1CC[C@H]1[C@@H]3C[C@H]4OC(c5ccc(CSC6CCOC6=O)nc5)O[C@@]4(C(=O)CO)[C@@]3(C)C[C@H](O)[C@@]12F (stereo partly shown) ?
Outgoing: 0.34

Source: patent EP4635969A1
